tested on: Klebsiella pneumoniae; details: Concentration 32 ug.mL-1;; ASSAY_TEST Inhibition of Bacterial Growth; detection method Absorption (OD600); MEDIA CAMHB; plate type 384well; NBS; CORNING #3640; time 18 hr
Description: Antibacterial activity against Klebsiella pneumoniae MDR ATCC 70063 (CO-ADD:GN_003); MIC in CAMBH media using NBS plates, by OD(600)
Potency and affinity values are given separately.
Quick rule for you: Inhibition at 6% or higher means MET, lower means NOT MET.

// query Reported Inhibition reaches at least 6% for Cc1cc(C)c(NC(=O)CSc2nnc3c4cc(-c5ccccc5)nn4ccn23)c(C)c1 ?
// result MET

// query Reported Inhibition reaches at least 6% for CCOc1ccc(C(=O)CSc2nnc3c(=O)n(-c4ccc(C)c(C)c4)ccn23)cc1 ?
// result NOT MET

// query Reported Inhibition reaches at least 6% for Cc1ccc(NC(=O)CSc2nc3ccccc3n3cnnc23)c(C)c1 ?
// result NOT MET

* * *

test system: Klebsiella pneumoniae; settings: Concentration 32 ug.mL-1;; ASSAY_TEST Inhibition of Bacterial Growth; detection method Absorption (OD600); MEDIA CAMHB; plate type 384well; NBS; CORNING #3640; time 18 hr
Entries with a potency or affinity are not part of this list.
observed.property: Inhibition (%)
Kindly provide the numeric value in % only, without the unit symbol.

// query Output Inhibition of COc1ccc(NC(=O)c2ccc3nn(CC(=O)Nc4ccc5c(c4)OCCO5)c(=O)n3c2)cc1
// result 2.24

// query Output Inhibition of Cc1cccc(CN(c2cccc(Cl)c2)S(=O)(=O)c2cccn3c(C)nnc23)c1
// result -0.09

// query Output Inhibition of COc1cccc(-n2ccn3c(SCc4cccc(C(F)(F)F)c4)nnc3c2=O)c1
// result -17.2

// query Output Inhibition of Cc1cc(C)cc(Nc2nc(C)cc3nn(CC(=O)Nc4ccc(Cl)cc4)c(=O)n23)c1
// result 13.53

// query Output Inhibition of CCc1ccc(N(Cc2ccc(F)cc2)S(=O)(=O)c2cccn3c(CC)nnc23)cc1
// result 6.32

// query Output Inhibition of Cc1nnc2ccc(S(=O)(=O)N(CC(=O)OC(C)(C)C)c3ccc4c(c3)OCO4)cn12
// result 6.34

// query Output Inhibition of COC(=O)c1ccc(NC(=O)CSc2nc3ccccc3n3c(C(C)C)nnc23)cc1
// result 12.96

// query Output Inhibition of Cc1ccccc1Oc1nccn2c(=O)n(CC(=O)Nc3cc(Cl)ccc3Cl)nc12
// result 4.89

// query Output Inhibition of COC(=O)c1sccc1NC(=O)Cn1nc2c(Oc3ccccc3)nc3ccccc3n2c1=O
// result 10.72

// query Output Inhibition of Cc1ccccc1CN(c1ccc(C(C)C)cc1)S(=O)(=O)c1cccn2cnnc12
// result 21.6

// query Output Inhibition of COc1ccc(-c2cc3c4nnc(SCC(=O)Nc5ccccc5Cl)n4ccn3n2)cc1
// result 1.23

// query Output Inhibition of Cc1ccc(NC(=O)Cn2nc3c4c5c(sc4ncn3c2=O)CCCC5)cc1C
// result 7.59

// query Output Inhibition of Cc1ccc(-c2cc3c4nnc(SCC(=O)Nc5ccccc5Br)n4ccn3n2)cc1
// result 5.31

// query Output Inhibition of COc1cccc(CN(c2ccc(F)c(F)c2)S(=O)(=O)c2ccc3nncn3c2)c1
// result 0.45

// query Output Inhibition of CCCn1c(=O)c2ccc(C(=O)NC3CCCCC3)cc2n2c(=O)n(CC#N)nc12
// result 5.71

// query Output Inhibition of COc1ccc(NC(=O)Cn2nc3c4cc(-c5ccc(C)cc5)nn4ccn3c2=O)c(OC)c1
// result 9.2

// query Output Inhibition of Cc1cc(C)cc(N(Cc2cc(C)ccc2C)S(=O)(=O)c2cccn3c(C)nnc23)c1
// result 4.69

// query Output Inhibition of Cc1nnc2ccc(S(=O)(=O)N(Cc3ccc(F)cc3)c3cc(F)cc(F)c3)cn12
// result 9.19

// query Output Inhibition of CCc1nnc2c(S(=O)(=O)N(Cc3cccc(F)c3)c3ccc(F)cc3)cccn12
// result -0.41

// query Output Inhibition of COc1ccc(NC(=O)Cn2nc3c4cc(-c5ccc(F)cc5)nn4ccn3c2=O)c(OC)c1
// result 14.79

* * *

system: Candida albicans; settings: Concentration 32 ug.mL-1; ASSAY_TEST Inhibition of Fungal Growth; detection method Absorption (OD530)
Description: Antifungal activity against Candida albicans ATCC 90028 (CO-ADD:FG_001); MIC in YNB media using NBS plates, by OD630
Results with a measured potency or affinity are listed apart.
Could you please report measured Inhibition for the items listed next?
The answer consists of two parts: a number and, after it, its unit.

// query Output Inhibition of COc1ccc(N(Cc2ccc(F)cc2)S(=O)(=O)c2ccc3nncn3c2)cc1
// result 2.69%

// query Output Inhibition of CCCN(C)c1nccn2c(=O)n(CC(=O)Nc3ccc(OC)c(Cl)c3)nc12
// result 7.19%

// query Output Inhibition of CCOc1ccc(C(=O)CSc2nnc3c(=O)n(-c4cccc(OC)c4)ccn23)cc1
// result 7.56%

// query Output Inhibition of CCc1nnc2c(S(=O)(=O)N(Cc3cc(F)cc(F)c3)c3cccc(F)c3)cccn12
// result 4.8%

// query Output Inhibition of O=C(CSc1nnc2c(=O)n(-c3ccccc3)ccn12)Nc1ccccc1F
// result -0.73%

// query Output Inhibition of CC(C)CCn1c(=O)c2ccc(C(=O)NC3CCCC3)cc2n2c(=S)[nH]nc12
// result 0.86%

// query Output Inhibition of O=c1c2sccc2n2c(=O)n(Cc3ccc(Br)cc3)nc2n1Cc1cccs1
// result 49.64%

// query Output Inhibition of O=S(=O)(c1ccc2nncn2c1)N(Cc1ccccc1F)c1ccc2c(c1)OCCO2
// result 7.13%

// query Output Inhibition of CCOC(=O)c1ccc(NC(=O)Cn2nc3ccc(SCc4ccc(Cl)cc4)nn3c2=O)cc1
// result 34.69%

// query Output Inhibition of COC(=O)c1cccc(NC(=O)Cn2nc3ccc(-c4ccccc4)nn3c2=O)c1
// result 4.96%

// query Output Inhibition of COc1ccc(CNC(=O)Cn2nc3c(SCc4ccc(Cl)cc4)nccn3c2=O)cc1
// result 1.91%

// query Output Inhibition of Cc1ccc(N(Cc2ccccc2F)S(=O)(=O)c2ccc3nncn3c2)cc1
// result 0.13%

// query Output Inhibition of COc1ccccc1-n1ccn2c(SCC(=O)N3CCN(c4ccccc4F)CC3)nnc2c1=O
// result 3.15%

// query Output Inhibition of CCC(C)NC(=O)Cn1nc2n(Cc3cccs3)c(=O)c3sccc3n2c1=O (stereo unspecified)
// result 0.06%

// query Output Inhibition of CSc1cccc(NC(=O)Cn2nc3c(SC4CCCCC4)nccn3c2=O)c1
// result -2.6%

// query Output Inhibition of Cc1oc(-c2ccccc2)nc1CSc1nc2ccccc2n2c(C)nnc12
// result 9.66%

// query Output Inhibition of COC(=O)c1cccc(NC(=O)Cn2nc3c(Oc4ccccc4)nccn3c2=O)c1
// result 3.07%

// query Output Inhibition of COc1ccc(NC(=O)Cn2nc3ccc(-c4ccc(C)c(C)c4)nn3c2=O)cc1OC
// result 32.8%

// query Output Inhibition of COC(=O)c1ccccc1NC(=O)Cn1nc2c(Oc3ccccc3)nccn2c1=O
// result 7%

// query Output Inhibition of O=C(Cn1nc2c(SC3CCCCC3)nccn2c1=O)Nc1ccc(Br)cc1
// result 6.38%

// query Output Inhibition of Cc1ccc(Cl)cc1NC(=O)CSc1nc2ccccc2n2c(C(C)C)nnc12
// result 11.96%

* * *

Could you please report measured Inhibition for the items listed next?
tested on: Cryptococcus neoformans; details: Concentration 32 ug.mL-1; ASSAY_TEST Inhibition of Fungal Growth; detection method Resazurin; Absorption (OD600-OD570); plate type 384well; NBS; CORNING #3640
Description: Antifungal activity against Cryptococcus neoformans H99 ATCC 208821 (CO-ADD:FG_002); MIC in YNB media using NBS plates, by Resazurin OD(600-570)
Potency and affinity values are given separately.
Kindly provide the numeric value in % only, without the unit symbol.

// query Output Inhibition of Cc1cccc(CN(c2cc(C)cc(C)c2)S(=O)(=O)c2cccn3c(C)nnc23)c1
// result -10.57

// query Output Inhibition of COc1cccc(CN(c2ccc(F)cc2)S(=O)(=O)c2cccn3cnnc23)c1
// result -1.54

// query Output Inhibition of O=C(Cn1nc2c(Oc3ccccc3)nccn2c1=O)Nc1ccccc1Cl
// result -12.94

// query Output Inhibition of O=C(Cn1nc2c(SC3CCCCC3)nccn2c1=O)Nc1ccc(Cl)cc1F
// result -29.46

// query Output Inhibition of CCOc1ccccc1NC(=O)Cn1nc2c3cc(-c4ccc(OC)cc4)nn3ccn2c1=O
// result -6.6

// query Output Inhibition of Cc1ccc(-c2ccc3nn(Cc4ccc(N5CCCC5=O)cc4)c(=O)n3n2)cc1
// result -7.16

// query Output Inhibition of CCCn1c(=O)c2sccc2n2c(=O)n(CC(=O)c3ccccc3)nc12
// result -9.13

// query Output Inhibition of COc1ccc(-c2cc3c4nnc(CCC(=O)NCc5ccc(OC)cc5OC)n4ccn3n2)cc1
// result -17.34

// query Output Inhibition of N#Cc1ccc(NC(=O)Cn2nc3c(Oc4ccccc4)nccn3c2=O)cc1
// result -7.22

// query Output Inhibition of CC(C)c1ccc(N(Cc2ccccc2)S(=O)(=O)c2cccn3cnnc23)cc1
// result -11.77

src = ChEMBL document CHEMBL4513146
